- condition.notes: in isobutanol, 293.15 K
measured.attribute: solubility (mole fraction)

>>> result_number("O=C(O)[C@@H]1C[C@@H](O)CN1")
"9.7e-05"

* * *

- condition.notes: in 2-butanone, 313.15 K
measured.attribute: solubility (mole fraction)

>>> result("O=C(O)[C@@H]1C[C@@H](O)CN1")
0.000483

* * *

- condition.notes: in acetone, 298.15 K
measured.attribute: solubility (mole fraction)

>>> result_number("O=C(O)[C@@H]1C[C@@H](O)CN1")
0.00164

* * *

- condition.notes: in water, 318.15 K
measured.attribute: solubility (mole fraction)

>>> result_number("O=C(O)[C@@H]1C[C@@H](O)CN1")
0.059
